Just for reference, patent US12617762B2 is where these values come from.

Listed next: entries and their corresponding pEC50.
system: NRF2 (nuclear factor erythroid 2-related factor 2); experiment: NRF2 +/-GSH activation assay (DiscoverX PathHunter NRF2 translocation kit, U2OS cells); format: cell-based; conditions: +GSH; 30 minute compound-GSH pre-incubation; read-out: NRF2 activation +GSH EC50
pEC50: −log10 of the molar value.
PROPERTY: pEC50

>>> measured_value("C=C(Cc1ncc(CCCCCCCC)cn1)C(=O)O")
4.61
>>> measured_value("C/C(=C\\c1nc(C2(c3ccc(SC(F)(F)F)cc3)CC2)no1)C(=O)O")
4.46
>>> measured_value("C=C(Cc1nc(CCCCCCCC)co1)C(=O)O")
5.12
>>> measured_value("C=C(Cc1nc(Cc2ccc(OCCCC)cc2)no1)C(=O)O")
5.17
>>> measured_value("C=C(Cc1nc(C2CC3(C2)CC2(CCC2)C3)no1)C(=O)O")
4.56
>>> measured_value("C=C(Cc1nc(C2(c3ccc(C)c(Cl)c3)CC2)no1)C(=O)O")
4.70
>>> measured_value("C=C(Cc1ncc(CCCCCCCC)s1)C(=O)O")
4.75

* * *

experiment: Hepatocyte stability assay, human; assay type: in vitro ADME; settings: human, hepatocytes, Hepatocyte stability Clint
hepatocyte CLint at 10 μM values by entry
PROPERTY: hepatocyte CLint at 10 μM (µL/min/1e6 cells)

>>> measured_value("C=C(Cc1nc(Cc2ccc(Cl)c(Cl)c2)no1)C(=O)O")
6
>>> measured_value("C=C(Cc1nc(Cc2ccc(CCCCC)cc2)no1)C(=O)O")
103
>>> measured_value("C=C(Cc1nc([C@H](C)CCCCCC)no1)C(=O)O")
21
>>> measured_value("C=C(Cc1nc(C2(c3ccc(OC(F)(F)F)cc3)CC2)no1)C(=O)O")
8
>>> measured_value("C=C(Cc1nc(Cc2ccc(C(C)(C)C)cc2)no1)C(=O)O")
7.5
>>> measured_value("C=C(Cc1nc(C2CC3(C2)CC2(CCC2)C3)no1)C(=O)O")
57
>>> measured_value("C=C(Cc1nc(C2(c3cc(Cl)cc(Cl)c3)CC2)no1)C(=O)O")
70
>>> measured_value("C=C(Cc1nc(CCCCCCCCC(F)(F)F)no1)C(=O)O")
137
>>> measured_value("C=C(Cc1noc(C(F)(F)CCCCCCC)n1)C(=O)O")
263
>>> measured_value("C=C(Cc1noc(C(F)(F)c2ccc(Br)cc2)n1)C(=O)O")
20

* * *

test: Hepatocyte stability assay, human; format: in vitro ADME; details: human, hepatocytes, Hepatocyte stability Clint
Structures can show the parent of a compound that is named as a salt.
PROPERTY: log10 of hepatocyte CLint at 10 μM (log10 of the value in µL/min/1e6 cells)

>>> measured_value("C=C(Cc1nc(C(F)(F)c2ccc(CCCC)cc2)no1)C(=O)O [Example 91]")
1.87
>>> measured_value("C=C(Cc1nc(Cc2ccc(CCCC)cc2)co1)C(=O)O [Example 127]")
2.39
>>> measured_value("C=C(Cc1nc(Cc2ccc(-c3ccc(Cl)cc3)cc2)no1)C(=O)O [Example 19]")
1.80
>>> measured_value("C=C(Cc1nc(-c2ccc(CCCCC(F)(F)F)cc2)no1)C(=O)O [Example 75]")
1.90
>>> measured_value("C=C(Cc1nc(-c2ccc(CCCCC)cc2)no1)C(=O)O [Example 23]")
2.51
>>> measured_value("C=C(Cc1nc(C2(c3ccc(Cl)cc3)CC2)no1)C(=O)O [Example 10]")
1.43
>>> measured_value("C=C(Cc1cc(CCCCCCCC)ccn1)C(=O)O [Example 104, trifluoroacetic acid salt]")
2.57
>>> measured_value("C=C(Cc1nc(C(C)CCCCCC)no1)C(=O)O (centres unmarked) [Example 8]")
1.45
>>> measured_value("C=C(Cc1noc(CCCCCCCC)n1)C(=O)O [Example 3]")
2.04
>>> measured_value("C=C(Cc1nc(C2(c3ccc(Br)c(Cl)c3)CC2)no1)C(=O)O [Example 138]")
1.98
>>> measured_value("C=C(Cc1nc(C2(c3ccc(Br)cc3)CC2)no1)C(=O)O [Example 50]")
1.40
>>> measured_value("C=C(Cc1nc(Cc2ccc(C3CCC3)cc2)no1)C(=O)O [Example 128]")
1.69
>>> measured_value("C=C(Cc1nc(CCCCCCCC(F)(F)F)no1)C(=O)O [Example 11]")
1.48
>>> measured_value("C=C(Cc1nc(C2(c3ccc(C(F)(F)F)cc3)CC2)co1)C(=O)O [Example 103]")
1.63
>>> measured_value("C=C(Cc1nc([C@@H](C)CCCCCC)no1)C(=O)O [Example 43]")
1.52
>>> measured_value("CCCCOc1ccc(-c2noc(/C=C(\\C)C(=O)O)n2)cc1 [Example 167]")
1.54
>>> measured_value("C=C(Cc1nc(C2(c3ccc(C4CCC4)cc3)CC2)no1)C(=O)O [Example 131]")
1.53
>>> measured_value("C=C(Cc1nc(CCCCCCC(C)(F)F)no1)C(=O)O [Example 31]")
0.70
